For each of the compounds below, state its IC50.
target: human P2X7R (Homo sapiens); assay: fluorometric Ca2+ assay (ATP-induced [Ca2+]i response) in HEKhP2X7 cells; details: fluo-4, 1 mM ATP, read-out: Potency IC50 ± SEM, Human P2X7R
Sequence (Q99572 whole entry): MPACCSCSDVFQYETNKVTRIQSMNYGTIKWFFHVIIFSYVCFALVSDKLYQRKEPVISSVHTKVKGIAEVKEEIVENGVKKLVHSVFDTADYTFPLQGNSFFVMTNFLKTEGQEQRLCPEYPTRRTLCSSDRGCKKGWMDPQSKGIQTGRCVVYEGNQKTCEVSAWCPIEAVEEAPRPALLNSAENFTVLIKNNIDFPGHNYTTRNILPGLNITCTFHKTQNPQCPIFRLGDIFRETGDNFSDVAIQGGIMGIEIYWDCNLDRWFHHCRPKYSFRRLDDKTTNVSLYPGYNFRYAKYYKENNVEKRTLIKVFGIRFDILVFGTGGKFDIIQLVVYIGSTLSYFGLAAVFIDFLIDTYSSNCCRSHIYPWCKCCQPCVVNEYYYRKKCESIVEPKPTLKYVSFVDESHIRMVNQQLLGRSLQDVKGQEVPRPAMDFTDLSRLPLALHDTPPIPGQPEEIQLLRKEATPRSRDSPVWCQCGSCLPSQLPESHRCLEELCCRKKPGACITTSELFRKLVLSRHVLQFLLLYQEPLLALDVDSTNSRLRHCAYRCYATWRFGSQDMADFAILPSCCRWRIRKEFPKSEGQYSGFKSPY
One number for each entry, in nM.

{"Compound": "O=C(NCC1(N2CCN(c3ccccc3)CC2)CCOCC1)c1cccnc1Sc1ccccc1 [JNJ-47965567]", "Readout Unit": "nM", "Value Measured": 5}

// batch mode: one IC50 value per listed entry
1. Clc1cccc(-c2nnnn2Cc2cccnc2)c1Cl [A-438079]
2. CCOc1ccc(Nc2ccc(/C(=C3C=C/C(=[N+](/CC)Cc4cccc(S(=O)(=O)[O-])c4)C=C/3C)c3ccc(N(CC)Cc4cccc(S(=O)(=O)O)c4)cc3C)cc2)cc1 [Brilliant Blue G]

70
980

---

Assay: Plasma and brain concentration in mice (co-administration with AEDs)
Assay type: in vivo
Conditions: mouse, brain, intraperitoneal, MES-T, CBZ 7 mg/kg i.p., n = 6, significantly lowered, read-out: brain concentration of CBZ with AFC 50 mg/kg s.c.
Protocol: Blood was collected intracardially by heart […] pipettes supplemented with heparin-Na (ratiopharm, Ulm, Germany; 10μl of 5.000 I.U./ml) and separated by centrifuging (1500xg for 10 min) at 6-8°C. The plasma was stored at -20°C in plastic tubes. […] Samples from experiments with AFC were analysed at the Lead Discovery Center (Dortmund, Germany). […] Plasma and brain concentrations of the compounds were calculated by means of a standard curve. […] Results are expressed as mean ± SEM. […]
Measurement Name: concentration at 30 min (µM)
Give bare numbers, in µM.

Which value of concentration at 30 min has been reported for NC(=O)N1c2ccccc2C=Cc2ccccc21 [carbamazepine] in the records?
17.2

---

Biological target: UniProtKB Q9Z1M0
Sequence (Q9Z1M0 1-595): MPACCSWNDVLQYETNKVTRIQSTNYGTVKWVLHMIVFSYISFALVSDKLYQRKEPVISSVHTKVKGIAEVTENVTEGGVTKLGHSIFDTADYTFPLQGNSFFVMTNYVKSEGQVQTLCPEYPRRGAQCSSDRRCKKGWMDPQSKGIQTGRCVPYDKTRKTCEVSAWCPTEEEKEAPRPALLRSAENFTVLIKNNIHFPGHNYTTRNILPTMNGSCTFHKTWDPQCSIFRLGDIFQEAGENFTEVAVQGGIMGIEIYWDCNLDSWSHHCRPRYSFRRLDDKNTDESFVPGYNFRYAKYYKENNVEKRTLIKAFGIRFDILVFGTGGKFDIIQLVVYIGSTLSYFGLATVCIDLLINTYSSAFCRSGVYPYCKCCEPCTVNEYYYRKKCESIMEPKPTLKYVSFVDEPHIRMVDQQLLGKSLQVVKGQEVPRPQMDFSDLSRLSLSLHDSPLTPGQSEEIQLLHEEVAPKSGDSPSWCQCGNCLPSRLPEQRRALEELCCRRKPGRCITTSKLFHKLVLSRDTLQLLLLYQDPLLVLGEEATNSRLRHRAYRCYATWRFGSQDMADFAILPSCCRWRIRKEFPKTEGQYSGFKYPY
Experiment: fluorometric Ca2+ assay (ATP-induced [Ca2+]i response) in HEKmP2X7 cells
Conditions: fluo-4, 1 mM ATP, read-out: Potency IC50 ± SEM, Mouse P2X7R
Please respond with reported pIC50 for every item in the list.
Answers are plain numbers, as −log10 of the molar value.

See these solved cases before continuing.
{"Compound": "O=C(NCC1(N2CCN(c3ccccc3)CC2)CCOCC1)c1cccnc1Sc1ccccc1 [JNJ-47965567]", "Measurement Name": "pIC50", "Value Measured": 8.00}
{"Compound": "Clc1cccc(-c2nnnn2Cc2cccnc2)c1Cl [A-438079]", "Measurement Name": "pIC50", "Value Measured": 6.55}

Consider the following items and state reported pIC50 for each.
1. O=C(CC12CC3CC(CC(C3)C1)C2)Nc1cccc2nc(NCCNCCO)ccc12 [AZ-10606120]
2. CCOc1ccc(Nc2ccc(/C(=C3C=C/C(=[N+](/CC)Cc4cccc(S(=O)(=O)[O-])c4)C=C/3C)c3ccc(N(CC)Cc4cccc(S(=O)(=O)O)c4)cc3C)cc2)cc1 [Brilliant Blue G]

[6.92, 6.28]
